Across several publications, the following log10(IC50) results were reported for UniProt P00591.
Please interpret these as log10 of IC50 where IC50 is in µM.

Entry "CSc1ccc2c(c1)Sc1cc3ccccc3nc1N2CCCCS(=O)(=O)O" : reported log10(IC50) = ? -0.25

Next up: "O=S(=O)(O)CCCCN1c2ccc(F)cc2Sc2cc3ccccc3nc21" -0.32

Next up: "O=S(=O)(O)CCCN1c2ccccc2Sc2cc3ccccc3nc21" 0.20

Next up: "O=C(O)c1ccc(-c2c3nc(c(-c4ccc(C(=O)O)cc4)c4ccc([nH]4)c(-c4ccc(C(=O)O)cc4)c4nc(c(-c5ccc(C(=O)O)cc5)c5ccc2[nH]5)C=C4)C=C3)cc1" 2.00

Next up: OC1(Cc2ccccc2)c2ccccc2Sc2ccc(C(F)(F)F)cc21 (centres unmarked) 2.05

Next up: "O=S(=O)(O)CCCN1c2ccc(Cl)cc2Sc2cc3ccccc3nc21" -0.05

Next up: OC1(c2ccccc2)c2ccccc2Sc2ccc(C(F)(F)F)cc21 (centres unmarked) 2.25

Next up: "Oc1ccc(-c2c3nc(c(-c4ccc(O)cc4)c4ccc([nH]4)c(-c4ccc(O)cc4)c4nc(c(-c5ccc(O)cc5)c5ccc2[nH]5)C=C4)C=C3)cc1" 1.99

Next up: "Nc1ccc(-c2c3nc(c(-c4ccc(N)cc4)c4ccc([nH]4)c(-c4ccc(N)cc4)c4nc(c(-c5ccc(N)cc5)c5ccc2[nH]5)C=C4)C=C3)cc1" 2.37

Next up: "CSc1ccc2c(c1)Sc1cc3ccccc3nc1N2CCCS(=O)(=O)O" 0.12

Next up: "O=C([O-])c1ccc(C2=C3C=CC(=N3)C(c3ccc(C(=O)[O-])cc3)=C3C=CC(=N3)C(=c3ccc(=C([O-])[O-])cc3)c3ccc([n-]3)C(c3ccc(C(=O)[O-])cc3)=C3C=CC2=N3)cc1.[67Cu+2].[H+].[H+].[H+].[H+]" 2.40
